SYSTEM_UNDER_TEST: D(3) dopamine receptor (Rattus norvegicus)
COND: C6
Description: Affinity on C6 glioma cells transfected with Dopamine receptor D3
METRIC_NAME: K 0.5 (nM)
Only the number, expressed in nM, is required.

Problem: Query: K 0.5; subject: C=CCN1Cc2ccccc2[C@@H]2Cc3n[nH]cc3C[C@H]21
Solution: 73.7

Problem: Follow-up item: CN1Cc2ccccc2[C@@H]2Cc3n[nH]cc3C[C@H]21
Solution: 187

Problem: Param item: CCCN1Cc2ccccc2[C@@H]2Cc3nc(N)ncc3C[C@H]21
Solution: 20.2

Problem: // query: c1ccc2c(c1)CN[C@@H]1Cc3c[nH]nc3C[C@@H]21
Solution: 955

Problem: Entry to check: Oc1cc2c(cc1O)[C@H]1c3ccccc3CN[C@@H]1CC2
Solution: 170

Problem: Entry to check: Nc1ncc2c(n1)C[C@H]1c3ccccc3CN[C@@H]1C2
Solution: 324

Problem: Repeat for the following molecule: CCCN1Cc2ccccc2[C@@H]2Cc3n[nH]cc3C[C@H]21
Solution: 162

Problem: Another: C=CCN1Cc2ccccc2[C@@H]2Cc3nc(N)ncc3C[C@H]21
Solution: 15.8

---

SYSTEM_UNDER_TEST: D(2) dopamine receptor (Rattus norvegicus) (UniProt P61169)
Sequence (P61169 whole entry): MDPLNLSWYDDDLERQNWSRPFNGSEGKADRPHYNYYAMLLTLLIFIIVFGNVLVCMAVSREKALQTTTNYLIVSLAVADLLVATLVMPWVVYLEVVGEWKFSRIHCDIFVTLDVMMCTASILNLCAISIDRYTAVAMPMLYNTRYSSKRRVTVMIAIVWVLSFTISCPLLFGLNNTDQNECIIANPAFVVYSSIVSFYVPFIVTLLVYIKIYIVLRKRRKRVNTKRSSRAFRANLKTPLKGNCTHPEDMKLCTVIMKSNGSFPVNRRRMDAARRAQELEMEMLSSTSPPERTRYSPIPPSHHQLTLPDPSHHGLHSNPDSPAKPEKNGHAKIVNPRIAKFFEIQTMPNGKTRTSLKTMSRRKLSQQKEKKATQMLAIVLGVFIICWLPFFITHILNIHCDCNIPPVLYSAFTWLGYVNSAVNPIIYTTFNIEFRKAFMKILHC
ASSAY_TEXT: Affinity on C6 glioma cells transfected with Dopamine receptor D2L
Type: cell-based
For each record, write down the corresponding K 0.5.
Supply the numeric figure in nM, leaving out any unit text.

Problem: Report K 0.5 for CCCN1CCC[C@@H]2Cc3nc(N)ncc3C[C@H]21 tested on D(2) dopamine receptor (Rattus norvegicus) (UniProt P61169).
Solution: 710

Problem: Repeat for the following compound: C=CCN1Cc2ccccc2[C@@H]2Cc3n[nH]cc3C[C@H]21
Solution: 1880

Problem: Item: O=C(CCCN1CCC2(CC1)C(=O)NCN2c1ccccc1)c1ccc(F)cc1
Solution: 0.16

Problem: Next entry: Oc1ccc2c(c1O)Cc1cccc3c1[C@H]2CNC3
Solution: 174

Problem: Also CN1Cc2ccccc2[C@@H]2Cc3n[nH]cc3C[C@H]21 , if possible.
Solution: 3090

Problem: // repeat for CCCN1Cc2ccccc2[C@@H]2Cc3n[nH]cc3C[C@H]21 and report
Solution: 4300

Problem: Same question, Oc1cc2c(cc1O)[C@H]1c3ccccc3CN[C@@H]1CC2 this time
Solution: 1490

---

SYSTEM_UNDER_TEST: D(2) dopamine receptor (Rattus norvegicus)
ASSAY_TEXT: Inhibition of [3H]spiperone binding to rat striatal membrane Dopamine receptor D2
Assignment: determine reported K 0.5 for the given molecules.

Problem: Value lookup for K 0.5; key = c1ccc2c(c1)CN[C@@H]1Cc3c[nH]nc3C[C@@H]21
Solution: 641 nM

Problem: Also CCCN1Cc2ccccc2[C@@H]2Cc3n[nH]cc3C[C@H]21 ?
Solution: 209 nM

Problem: Now give it for C=CCN1Cc2ccccc2[C@@H]2Cc3n[nH]cc3C[C@H]21 too.
Solution: 100 nM

Problem: Next: C=CCN1Cc2ccccc2[C@@H]2Cc3nc(N)ncc3C[C@H]21
Solution: 102 nM

Problem: Then this molecule: O=C(CCCN1CCC2(CC1)C(=O)NCN2c1ccccc1)c1ccc(F)cc1
Solution: 0.21 nM

Problem: Follow-up entry: CCCN1CCC[C@@H]2Cc3nc(N)ncc3C[C@H]21
Solution: 4.78 nM

---

SYSTEM_UNDER_TEST: UniProt:P61169
ASSAY_TEXT: Inhibition of [3H]spiperone binding to rat striatal membrane Dopamine receptor D2
Could you please report measured K 0.5 for the items listed next?
Value expressed in nM; do not type the unit.

Problem: I'd like to know its K 0.5. The compound in question is Nc1ncc2c(n1)C[C@H]1c3ccccc3CN[C@@H]1C2
Solution: 467

Problem: Next compound up: CCCN1Cc2ccccc2[C@@H]2Cc3nc(N)ncc3C[C@H]21
Solution: 45

Problem: And the next one, CN1Cc2ccccc2[C@@H]2Cc3n[nH]cc3C[C@H]21 ?
Solution: 189

---

SYSTEM_UNDER_TEST: UniProtKB P18901
Sequence (P18901 whole entry): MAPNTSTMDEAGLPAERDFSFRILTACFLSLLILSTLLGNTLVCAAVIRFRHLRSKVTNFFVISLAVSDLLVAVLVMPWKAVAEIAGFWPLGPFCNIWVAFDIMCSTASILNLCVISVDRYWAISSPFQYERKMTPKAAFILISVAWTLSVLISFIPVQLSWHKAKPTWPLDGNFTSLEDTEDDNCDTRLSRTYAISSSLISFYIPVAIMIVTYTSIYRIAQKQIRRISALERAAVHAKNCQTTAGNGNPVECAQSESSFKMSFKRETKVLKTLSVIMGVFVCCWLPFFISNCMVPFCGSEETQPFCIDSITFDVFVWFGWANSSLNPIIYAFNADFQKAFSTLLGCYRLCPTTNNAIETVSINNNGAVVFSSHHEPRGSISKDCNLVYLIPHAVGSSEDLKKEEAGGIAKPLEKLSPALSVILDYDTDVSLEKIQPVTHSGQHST
ASSAY_TEXT: Inhibition of [3H]SCH-23390 binding to rat striatal membrane Dopamine receptor D1
METRIC_NAME: K 0.5

Problem: Give the reported K 0.5 for CN1CCc2cc(Cl)c(O)cc2[C@@H](c2ccccc2)C1 (system: UniProtKB P18901).
Solution: 0.0004 µM

Problem: And C=CCN1Cc2ccccc2[C@@H]2Cc3nc(N)ncc3C[C@H]21 ?
Solution: > 5 µM

Problem: Next entry: CCCN1Cc2ccccc2[C@@H]2Cc3nc(N)ncc3C[C@H]21
Solution: > 5 µM

Problem: Now the compound C=CCN1Cc2ccccc2[C@@H]2Cc3n[nH]cc3C[C@H]21
Solution: > 5 µM

Problem: What would you report for CCCN1Cc2ccccc2[C@@H]2Cc3n[nH]cc3C[C@H]21 ?
Solution: > 5 µM

Problem: c1ccc2c(c1)CN[C@@H]1Cc3c[nH]nc3C[C@@H]21 ?
Solution: > 5 µM

Problem: Same thing, different compound: CN1Cc2ccccc2[C@@H]2Cc3n[nH]cc3C[C@H]21
Solution: > 5 µM

Problem: Nc1ncc2c(n1)C[C@H]1c3ccccc3CN[C@@H]1C2 ?
Solution: > 5 µM

Problem: CCCN1CCC[C@@H]2Cc3nc(N)ncc3C[C@H]21 ?
Solution: > 5 µM

---

What K 0.5 was measured for each of the following?
SYSTEM_UNDER_TEST: D(2) dopamine receptor (Rattus norvegicus) (UniProt P61169)
ASSAY_TEXT: Affinity on C6 glioma cells transfected with Dopamine receptor D2L
Assay type: cell-based

Problem: Quick one: K 0.5 of c1ccc2c(c1)CN[C@@H]1Cc3c[nH]nc3C[C@@H]21 ?
Solution: > 5 µM

Problem: Query C=CCN1Cc2ccccc2[C@@H]2Cc3nc(N)ncc3C[C@H]21 next
Solution: > 5 µM

Problem: Entry CCCN1Cc2ccccc2[C@@H]2Cc3nc(N)ncc3C[C@H]21 please
Solution: > 5 µM
